assay: soluble on expression in E. coli; label from the status in PepcDB or PDB records

sequence.chain: DTIRWATEQAIANGTGEREYIKKLEPMLKELGWWGKAKDENGNEVQLGSPRRLRTILRTNKITAYHAARYAQQMENVDEQPYWRYVAVNDSRTRASHLALHGKIYRADDPIWQTMYPPNDWGCRCRVE
soluble on expression in E. coli: not soluble
//
sequence.chain: MGSDKIHHHHHHMTIMSIGIIIASHGEFAAGIHQSGSMIFGEQEKVQVVTFMPNEGPDDLYAKFNNAVAAFDAEDEVLVLADLWSGSPFNQASRVMGENPERKFAIITGLNLPMLIQAYTERLMDAAAGVEKVAANIIKEAKDGIKALPEELNPVEEVASAAAAPVAQTAIPEGTVIGDGKLKINLARLDTRLLHGQVATAWTPDSKANRIIVASDNVAKDDLRKELIKQAAPGNVKANVVPIQKLIEISKDPRFGETHALILFETPQDALRAIEGGVPIKTLNVGSMAHSTGKTLVNTVLSMDKEDVATFEKMRDLGVEFDVRKVPNDSKKDLFDLINKANVK
soluble on expression in E. coli: not soluble
//
sequence.chain: METNRPSPDALLVNLQEEADSSVGKLKIYFGFAAGVGKTYAMLSDAKDQLAAGVDVVAGYIEPHAREETLRMLEGIPIIPPKAINHKNIALKEFDLDEALKRKPELILVDELAHTNASGVRNKKRFQDVEELLQAGIDVYTTVNVQHIESLNDIVEGITKVAVRETIPDYVFDEADRVKLIDIEPDELLKRLEQGKIYQPARAKTAMQNFFTRENLKLLREIAMRKAADRI
soluble on expression in E. coli: not soluble

###

assay: soluble on expression in E. coli; label from the status in PepcDB or PDB records

sequence.chain: MSLKILVLGIGNILFGDEGIGVHLSNLLKVNYRFEGPHQVDVIDGGTLAQLLIPLITSYDYVIVIDCVDAGGGKIGEVYFFDFDNVPNVITWQGSAHEVEMLQTLRMTEVNGDLPPVKIVGVIPSIIGSETAFDLSKEVAEASVTMEKIVLNHLQELGVEITRIDSKTIDEIAPLSYKGEGHHHHHH
soluble on expression in E. coli: soluble
--
sequence.chain: MEIDKEILKRCKKYDRASFSQLFHLYEKYLYNLCYGYTQNTSDAMDLVQEIYIKVFKNIKNFDENLPFHPWVRKISVNTCLNFKRDNRGNVMSLNSKYYDSEFEEEDRLAEDYNMEQEVVNRINNEVVKESIKKLTYDYRMVIMLRYYEDLSYDEIASVLDMPIGTVKTKIYRAKNVLKKSLEKKLEVKK
soluble on expression in E. coli: not soluble
--
sequence.chain: MTSDGMDEWPTGRLLSTAARLVEHSWEDILRSQNMTHAGLICLHTIADRPASQRDIAKVSRVTDQTISRTIDRLERAGYVTRETDPLDERRKRVAITESGRAIYRRLLALEKEDAALTAAVGDVGPLREQLLLLVRSLGLPTRD
soluble on expression in E. coli: not soluble
--
sequence.chain: MQFSLVIPVYNAGMMWPEVIRSIKSQTIQPECVIIIDSSSTDNTVAYATEAGFEVYHIDKSTFDHGGTRSMALERVNTEFVIYMTQDAILQNDEAFFYLLSAFNNEEVGAVYGRQLPHHDANPLATHARLHSYGEVGYVTSMKDDFPQGFRKAFMSNSFSGYRVSTLRQIGGFPAKLILGEDSYVAARMLSTGVSVGYIPQALARHSHNYSVGEEFKRYFDIGVFHKTQEWMLASLGKVEGEGVKFALGQICYLLKSNYYHYIPFSIASSGAKYLGYKLGKNYHRLNRTLCKKLSMYKSYWNSSVLEHHHHHH
soluble on expression in E. coli: soluble
--
sequence.chain: AQAFVNSKIQPGKVVVFIKPTCPFCRKTQELLSQLPFKEGLLEFVDITATSDTNEIQDYLQQLTGARTVPRVFIGKECIGGCTDLESMHKRGELLTRLQQVGAVK
soluble on expression in E. coli: soluble
--
sequence.chain: MMVWTPVNNKMFETFSYLPPLTDEQIAAQVDYIVANGWIPCLEFAEADKAYVSNESAIRFGSVSCLYYDNRYWTMWKLPMFGCRDPMQVLREIVACTKAFPDAYVRLVAFDNQKQVQIMGFLVQRPKTARDFQPANKRSV
soluble on expression in E. coli: soluble
--
sequence.chain: METASITEWTFVQEVPIPEDVANLMVPGEDAVVAFKTFRDSAIFTTKRLIVRDSQGLRGKKVEVYSLPYSSVNMWSTENAGTFDFNAEVELWTRAGKIKIKIGRDLDVRRLDMLLAQCILG
soluble on expression in E. coli: not soluble
--
sequence.chain: MRLVEIGRFGAPYALKGGLRFRGEPVVLHLERVYVEGHGWRAIEDLYRVGEELVVHLAGVTDRTLAEALVGLRVYAEVADLPPLEEGRYYYFALIGLPVYVEGRQVGEVVDILDAGAQDVLIIRGVGERLRDRAERLVPLQAPYVRVEEGGIHVDPIPGLFDLEHHHHHH
soluble on expression in E. coli: not soluble

Value source: the DeepSol protein solubility set
